assay: Human HepG2 cell viability assay in 384 well format; format: toxicity, cell-based; design: dose 125 nL, time 70.5 hour; concentration not given beside the values; conditions: HepG2 cells, read-out: Inhibition
measurement kind: cytotoxicity at 70.5 h
Please don't drop the unit; write it after the number.

A selection of reference data follows.
query: Indicate its recorded cytotoxicity at 70.5 h; the compound in question is Cc1cn2nc(N3CCN(Cc4cc(C)on4)CC3)sc2n1
result: -2.77%

query: Indicate its recorded cytotoxicity at 70.5 h; the compound in question is Cc1nc(NCc2scnc2-c2ccccc2)cc(C2CCNCC2)n1
result: -6.26%

query: Indicate its recorded cytotoxicity at 70.5 h; the compound in question is CC(C)c1ncc2c(n1)CN(Cc1ccc3c(c1)OCCO3)CC2
result: 12.6%

query: Indicate its recorded cytotoxicity at 70.5 h; the compound in question is Cc1cc(N2CCOC(C)(C(=O)N(C)C)C2)ncn1 (stereo unspecified)
result: -6.62%

Fill in cytotoxicity at 70.5 h for each of the 3 compounds listed.
1. COc1cccc(N2CCN(C(C(=O)O)c3ccc(OC)nc3)CC2)c1 (stereo unspecified)
2. CC(NC(=O)Nc1nccs1)c1ccncc1 (stereo unspecified)
3. CCCN(CC1COc2ccccc2O1)C(=O)c1ncoc1CC (stereo unspecified)

result:
-9.28%
-10.5%
-7.46%

Fill in cytotoxicity at 70.5 h for each of the 7 compounds listed.
1. CC1(C)CN(CCC(=O)NCc2cccc(Cl)c2)CC[C@]1(C)O
2. COCC(=O)NCc1ccc(-c2ccccc2C(=O)O)cn1
3. CC(C)Oc1cc(N2C[C@@H](C)O[C@@H](C)C2)nc(N)n1
4. O=C(NCCCN1CCOCC1)c1cc(-c2ccco2)[nH]n1
5. CC(C)COC(=O)N1CCCN(Cc2nnc(C(C)(C)C)o2)CC1
6. CCN1C[C@H]2CCN(C(=O)NC)CC[C@H]2S1(=O)=O
7. COc1cccc(N2CCC(CNCc3cccc(C#N)c3)C2)c1 (stereo unspecified)

result:
-9.57%
-3.58%
-14.6%
-11.6%
-4.02%
49%
9.04%

Fill in cytotoxicity at 70.5 h for each of the 4 compounds listed.
1. CC(C)c1nc(CNC2CCCN(c3cccnn3)C2)no1 (stereo unspecified)
2. Cc1nn(C)c(C)c1CN(C)c1nc(C2CC2)nc2c(C)nn(C)c12
3. CC(C)c1nc(N2CCC(N3CCSCC3)CC2)c2cnn(C)c2n1
4. COc1cccc(C2CCCN2C(=O)CC2=CSC3=NCCCN23)c1 (stereo unspecified)

result:
1. 21%
2. 29.7%
3. -2.43%
4. -12%
